test: in vivo; conditions: rabbit, iv, 2 mg/kg
Square brackets hold non-standard residues; d marks the D form. Peptide text beside a SMILES is read from it. * marks the point of attachment. Boc = CC(C)(C)OC(=O)*
PARAMETER MEASURED: Vd (L/kg)
Report the value in L/kg with no unit label.

[in] Query: Vd; subject: CC(C)(C)OC(=O)N[C@H](CCCN=C(N)N)C(=O)NCC(=O)N[C@H](C=O)CCCN=C(N)N [Boc--D-Arg--Gly--Arg--H, Boc-D-Arg-Gly-Arg-H] (Boc-[dR]-Gly-Arg-aldehyde)
[out] 0.118
